Hey, just so you know, these numbers are from patent US20100047245A1.

# SUBJECT OF TEST: recombinant purified human IL-12 p70 (human) (UniProt P29459)
# Sequence (chain, as listed by the source, form in doubt, chain 1 of 2): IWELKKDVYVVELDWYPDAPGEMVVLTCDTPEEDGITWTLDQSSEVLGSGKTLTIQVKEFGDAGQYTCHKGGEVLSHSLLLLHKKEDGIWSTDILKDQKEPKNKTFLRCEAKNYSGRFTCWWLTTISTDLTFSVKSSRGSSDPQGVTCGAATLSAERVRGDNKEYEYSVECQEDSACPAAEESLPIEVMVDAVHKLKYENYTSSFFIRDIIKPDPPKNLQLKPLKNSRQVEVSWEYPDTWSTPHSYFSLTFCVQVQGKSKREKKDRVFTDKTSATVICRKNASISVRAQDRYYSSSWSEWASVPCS
# Sequence (P29459 23-219, form in doubt, chain 2 of 2): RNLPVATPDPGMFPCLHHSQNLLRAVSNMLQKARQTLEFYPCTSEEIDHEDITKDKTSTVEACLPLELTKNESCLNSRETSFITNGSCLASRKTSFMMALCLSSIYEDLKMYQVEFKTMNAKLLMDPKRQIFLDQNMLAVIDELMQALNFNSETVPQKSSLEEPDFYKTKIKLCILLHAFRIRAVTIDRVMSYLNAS
# METHOD NOTES: SPR (BIAcore) per Example 1.1.B; antigen not restated, taken as human IL-12 p70
For each record, write down the corresponding Kd.
Please respond with the number in nM and leave the unit unwritten.

Query: Field request: Kd | item: 1D4.4 (antibody, human IgG1, V domains shown) VH: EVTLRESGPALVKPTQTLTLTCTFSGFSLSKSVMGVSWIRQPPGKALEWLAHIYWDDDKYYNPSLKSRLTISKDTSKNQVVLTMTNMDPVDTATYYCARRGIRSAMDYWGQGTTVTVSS VL: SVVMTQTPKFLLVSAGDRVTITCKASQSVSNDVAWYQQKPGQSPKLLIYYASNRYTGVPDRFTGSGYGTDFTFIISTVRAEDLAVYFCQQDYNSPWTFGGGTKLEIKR
Result: 0.074

Query: Field request: Kd | item: 1A6.3 (antibody, human IgG1, V domains shown) VH: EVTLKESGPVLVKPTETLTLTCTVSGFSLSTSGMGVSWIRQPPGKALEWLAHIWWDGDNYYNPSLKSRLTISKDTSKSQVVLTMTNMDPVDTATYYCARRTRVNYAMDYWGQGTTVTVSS VL: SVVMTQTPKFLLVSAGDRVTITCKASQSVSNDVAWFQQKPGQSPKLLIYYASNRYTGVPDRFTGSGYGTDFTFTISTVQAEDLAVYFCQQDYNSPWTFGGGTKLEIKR
Result: 0.14

Query: Field request: Kd | item: 1A6.4 (antibody, human IgG1, V domains shown) VH: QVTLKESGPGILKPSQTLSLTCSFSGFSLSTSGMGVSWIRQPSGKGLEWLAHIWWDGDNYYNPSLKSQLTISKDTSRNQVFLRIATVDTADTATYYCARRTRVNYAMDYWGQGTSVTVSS VL: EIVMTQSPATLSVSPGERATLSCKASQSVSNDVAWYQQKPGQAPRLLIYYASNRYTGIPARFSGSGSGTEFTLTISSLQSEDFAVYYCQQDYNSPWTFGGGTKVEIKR
Result: 1

Query: Field request: Kd | item: 1D4.5 (antibody, human IgG1, V domains shown) VH: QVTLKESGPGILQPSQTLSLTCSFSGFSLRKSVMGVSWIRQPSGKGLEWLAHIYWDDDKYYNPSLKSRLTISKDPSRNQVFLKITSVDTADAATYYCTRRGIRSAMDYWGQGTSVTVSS VL: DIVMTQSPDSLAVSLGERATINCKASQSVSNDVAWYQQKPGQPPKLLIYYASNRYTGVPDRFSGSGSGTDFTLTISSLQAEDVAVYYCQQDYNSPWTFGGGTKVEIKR
Result: 0.11
